Assay: Primary qHTS for inhibitors of nuclear receptor binding SET domain protein 2 (NSD2) in an RCH-ACV wild type WT cells (2C) (AID 1645877); also: nearly all actives have a fitted effect of over 70% in size
Details: RCH-ACV (leukaemia line) NSD2 WT (2C) viability, CellTiter-Glo, 72 h; series mostly up to 44.9 µM
Inconclusive results are not listed. Calls of active or inactive are those of the source. Calls follow the shape of the dose curve; as a rule, active = well fitted inhibition curve with a large enough effect; inconclusive = small, poorly fitted or top-dose-only effect; inactive = no such curve, though single readings can be large or run the other way.
Field 'call' accepts active, inactive

- Compound: "C=C1C(=O)O[C@@H]2/C=C(\\CO)CC/C=C(/C=O)C[C@H](O)[C@@H]12"
  Assigned Label: "active"
- Compound: "COc1cc2c(c(OC)c1CC=C(C)C)C[C@H](c1ccc(O)c(CC=C(C)C)c1O)CO2"
  Assigned Label: "inactive"
- Compound: "C=C1CC(=O)C2OC2(C)CC2OC(=O)C(=C)C2C(O)C1OC(=O)/C(C)=C\\C (configuration not stated)"
  Assigned Label: "active"
- Compound: "CN(C)C(=O)Nc1cc(-c2ccccc2)ccc1N(C)C"
  Assigned Label: "inactive"
- Compound: "CCn1c2ccccc2c2cc(Nc3ccnc(NCCCN4CCOCC4)n3)ccc21"
  Assigned Label: "active"
- Compound: "O=C(NCCCCN1CCN(c2cccc(Cl)c2Cl)CC1)c1cc2ccccc2s1"
  Assigned Label: "active"
- Compound: "Fc1ccc(CN2CCC(Nc3ccc(C(F)(F)F)nn3)CC2)cc1F"
  Assigned Label: "inactive"
- Compound: "C=CS(=O)(=O)NC1CCN(C(=O)CNc2cc(I)c(Cl)cc2OC)CC1"
  Assigned Label: "active"

Enquiry: For this compound, state the assay outcome: CC1CCC/C=C/C(=O)c2c(O)cc(O)cc2CC(=O)O1 (configuration not stated)
Return: active

Enquiry: Tell me the assay call for Cc1cc(C)cc(-c2cnc3cc(Cl)c(-c4cccc(O)c4)cc3c2OCCCN)c1 please.
Return: active

Enquiry: Hello, I am checking results. What call was entered for Cc1cc(OCCCS(C)(=O)=O)cc(C)c1-c1cccc(COc2ccc3c(c2)OCC3CC(=O)O)c1 (configuration not stated) ?
Return: inactive

Enquiry: Look up the recorded call for CC1(C)CC[C@]2(C(=O)O)CC[C@]3(C)C(=CCC4[C@@]5(C)C[C@@H](O)[C@H](O)C(CO)(CO)C5CC[C@]43C)C2[C@@H]1O (some centres not stated) in this test.
Return: active

Enquiry: Write down the call the test reported for this compound. Item: O=C(NNc1nc2cc(F)ccc2n2cccc12)c1cnccn1
Return: active

Enquiry: Test call, this compound: Cn1c(=O)c2c(ncn2Cc2ccc(C(C)(C)C)cc2)n(C)c1=O
Return: active

Enquiry: Name the outcome recorded for c1cc(-c2cnn3cc(-c4ccc(N5CCNCC5)cc4)cnc23)c2cccnc2c1 in the assay.
Return: active

Enquiry: Answer briefly: the call reported for O=c1nc(-c2ccccn2)sc2ccccc12 in this assay.
Return: active

Enquiry: For this compound, state the assay outcome: Cn1ccc(NC(=O)c2cc(Oc3ccc(C(=O)N4CCC4)c(F)c3)c3c(c2)OC(C)(C)C3)n1
Return: inactive

Enquiry: Please indicate how the test categorized O=C(NO)c1cnc(N2CCN(S(=O)(=O)c3ccc4ccccc4c3)CC2)nc1 .
Return: active

Enquiry: Would you mind telling me which call this test gave CC1(C)CCC(C)(C)c2cc(C#Cc3ccc(C(=O)O)cc3)ccc21 ?
Return: inactive

Enquiry: Returns: the outcome recorded for C=C1CC[C@@H]2[C@](C)(CO)[C@H](O)CC[C@@]2(C)[C@@H]1CC(=O)C1=CCOC1=O in this assay.
Return: inactive

Enquiry: So what was the verdict on Cc1c(OCc2cccc(-c3ccc(C(=O)O)cc3)c2)cc2c(c1C)C(=O)C(C1CCCC1)C2 (configuration not stated) in this test?
Return: inactive

Enquiry: Hi, sorry to bother you, what did the test record for COc1cc(-n2cnc3cc(-c4ccc(Cl)cc4)sc3c2=O)ccc1OCCN1CCCC1 ?
Return: active
